- Test system: LOX IMVI
- MEASUREMENT DESCRIPTION: NCI tumour cell line growth inhibition, 48 h
Calls of active or inactive are those of the source. Rule as the data show it: active = GI50 up to about 1.1 µM and inactive = higher.
Just give me one of these, please: active, inactive

Answered examples (5):
> print(dat)
                                   molecule  qualitative.label
1  CSC(=S)OC1CC(n2cnc3c(NC(=O)c4ccccc4)ncnc32)OC1CO[Si](C)(C)C(C)(C)C (stereo not drawn)           inactive
2  C/C(=C/CO[Si](C)(C)C(C)(C)C)C(=O)N(C)c1ccccc1I           inactive
3  CCOC(=O)/C=C(/C(=O)OCC)n1cc(C)c(=O)n(Cc2cn(COCCOC(C)=O)nn2)c1=O           inactive
4  NC(CNc1ccc(O)cc1)C(=O)O (stereo not drawn)           inactive
5             Clc1ccccc1/C=C/c1ccnc2ccccc12           inactive

Exam item: Entry "O=C(CC(=O)c1ccccc1)c1ccccc1.O=C(CC(=O)c1ccccc1)c1ccccc1.O=C(CC(=O)c1ccccc1)c1ccccc1.[SiH4]" : call = ?
Marked response: inactive

Exam item: Entry "C=C1C/C(=C/C)C(=O)O[C@@H]2CCN3CC=C(COC(=O)[C@]1(C)O)[C@H]23" : call = ?
Marked response: inactive

Exam item: Entry CN(C)CC1CCCCCC(Br)C1=O (stereo not drawn) : call = ?
Marked response: inactive

Exam item: Entry CCOC(=O)C(c1ccsc1)P(=O)(OCC)OCC (stereo not drawn) : call = ?
Marked response: inactive

Exam item: Entry Cc1ccc(S(=O)(=O)C2=Cc3ccccc3C2(O)c2ccccc2)cc1 (stereo not drawn) : call = ?
Marked response: inactive

Exam item: Entry "CN(Cc1cccc2ccccc12)Cc1cccc2ccccc12" : call = ?
Marked response: inactive

Exam item: Entry "C=CCN1C(=O)CC(=O)N(NC2=NNC3(C(=O)N2)c2ccccc2-c2ccccc23)C1=S" : call = ?
Marked response: inactive

Exam item: Entry "N#C/C(=C\c1ccc([N+](=O)[O-])o1)c1n[nH]c(Cc2ccccc2)n1" : call = ?
Marked response: active

Exam item: Entry "N#Cc1c(O)c(/C=N/c2ccc(Cl)cc2)c(=O)n2c1[nH]c1ccccc12" : call = ?
Marked response: inactive

Exam item: Entry "CN1Cc2c(nc(-c3ccccc3)c[n+]2[O-])N(C)C1" : call = ?
Marked response: inactive

Where these numbers come from: ChEMBL document CHEMBL1201862
